- target.desc: D-2 receptor (Rattus norvegicus)
- Construct: Striatal tissue was excised, pooled, and homogenized
- Sequence (P61169 whole entry): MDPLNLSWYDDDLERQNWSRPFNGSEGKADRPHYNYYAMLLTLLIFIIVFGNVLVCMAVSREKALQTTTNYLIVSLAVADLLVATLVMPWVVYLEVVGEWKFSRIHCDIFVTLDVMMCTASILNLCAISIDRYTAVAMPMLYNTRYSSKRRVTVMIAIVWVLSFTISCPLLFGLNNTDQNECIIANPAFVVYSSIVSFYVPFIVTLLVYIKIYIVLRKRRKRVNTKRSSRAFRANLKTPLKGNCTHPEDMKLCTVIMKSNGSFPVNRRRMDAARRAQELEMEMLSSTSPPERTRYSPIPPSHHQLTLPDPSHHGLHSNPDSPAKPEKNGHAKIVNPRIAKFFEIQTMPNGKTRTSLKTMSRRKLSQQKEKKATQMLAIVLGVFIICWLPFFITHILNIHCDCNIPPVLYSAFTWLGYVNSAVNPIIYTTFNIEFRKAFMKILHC
- method.description: Competitive inhibition assay, displacement of 3H-spiperone
- study.conditions: 3H-spiperone 0.2 nM; rat striatal tissue homogenate; 37°C for 15 minutes

{"molecule": "Oc1cc2c(cc1Cl)CCN[C@H]1Cc3ccccc3[C@H]21 (racemic)", "Ki / µM": 1.58}
{"molecule": "CN1CCc2cc(Cl)c(O)cc2[C@H]2c3ccccc3C[C@@H]21 (racemic)", "Ki / µM": 12}
